Tested on: UACC-62 melanoma
protocol.summary: NCI tumour cell line growth inhibition, 48 h
Note to self: values exactly at 20 µM are Yes. So TGI at or above 20 µM is Yes, below is No.

> print(dat)
                                    molecule  cat
 1          CS(=O)(=O)OCCCSCCSCCCOS(C)(=O)=O  Yes
 2  C#C[C@@]1(O)[C@@H](CO)O[C@@H](n2cc(C(F)(F)F)c3c(N)ncnc32)[C@@H]1O   No
 3                O=C1OCC(c2ccc(Cl)cc2)=C1Cl  Yes
 4  CCOC(=O)/C(C(=S)NCc1ccccc1)=C(/N)N1CCCC1  Yes
 5        Nc1nc(Cl)c2ncn(Cc3cccc(CCl)c3)c2n1   No
 6          O=c1[nH][nH]c(=O)n1/N=C/c1ccccc1  Yes
 7     CS(=O)(=O)c1ccc2nc(-c3ccc(O)cc3)sc2c1  Yes
 8  c1cc2nnc1SCCSCCSCCSc1ccc(nn1)SCCSCCSCCS2  Yes
 9          O=C1c2cccc(O)c2C(=O)c2c(O)cccc21  Yes
10         C/C(=N\Nc1nc2ccccc2[nH]1)c1cnccn1  Yes
11  CC(NC1=CC(=O)c2cccnc2C1=O)C(O)c1ccccc1 (configuration not stated)   No
12  CCC1(CC)N=C(C(F)(F)F)c2cc(C(=O)C(F)(F)F)c3ccccc3c2N1   No
13  CCOC(=O)NN(C(=O)OCC)C(=C(C1=CCCCC1)N1CCOCC1)N(NC(=O)OCC)C(=O)OCC  Yes
14  O=[N+]([O-])c1ccc2sc(/C=N/c3ccccn3)cc2c1  Yes
15  N=C(N)c1ccc(-c2ccc(-c3ccc4ccccc4c3)s2)s1   No
16  CO[C@@]12C[C@@H](C)[C@]34O[C@H]3C[C@]3(C)O[C@]43CC1=C(C)C(=O)O2  Yes
17  COc1cc2cc3c4c(cc(OC)c(OC)c4c2cc1OC)CCN3C   No
18  COc1ccccc1[As]=[As]c1ccccc1OC (configuration not stated)   No
19  COc1cc(/C=C(\NC(=O)c2ccccc2)c2nc3ncncc3[nH]2)cc(OC)c1OC  Yes
20  CC(=O)Nc1cc2cc(NS(=O)(=O)c3ccc(Cl)c(Cl)c3)ccc2oc1=O  Yes
21  NS(=O)(=O)c1ccc(NC(=O)C2C(=O)C(=O)N(c3ccc(S(N)(=O)=O)cc3)C2=O)cc1 (configuration not stated)  Yes

---

Test system: OVCAR-5 ovarian
protocol.summary: NCI tumour cell line growth inhibition, 48 h
outcome.measure: TGI

> print(dat)
                                    compound  target.under.test  reported.result
 1               Cc1nc2sc3c(N)ncnc3c2c(C)c1C    OVCAR-5 ovarian          > 25 µM
 2  CCOC(=O)/C(C(=S)NCc1ccccc1)=C(/N)N1CCCC1    OVCAR-5 ovarian         > 100 µM
 3  C[N+](C)(C)c1cc[c]([Sn]([c]2ccc([N+](C)(C)C)cc2)([c]2ccc([N+](C)(C)C)cc2)[c]2ccc([N+](C)(C)C)cc2)cc1    OVCAR-5 ovarian         > 100 µM
 4         O=C(O)CCCNc1ncc2c(n1)-c1ccccc1OC2    OVCAR-5 ovarian         > 100 µM
 5  CCOc1ccc(C(C[N+](=O)[O-])Sc2ccccc2N)cc1 (stereo not drawn)    OVCAR-5 ovarian          23.2 µM
 6  COc1ccc2c(O)c(/C=C3\N=Nc4ncccc43)oc2c1C[C@@H]1CCNC[C@H]1F    OVCAR-5 ovarian          8.29 µM
 7  COc1cc2c(c(OC)c1OC)-c1ccc(SC)c(=O)cc1[C@@H](NC(=O)C(F)(F)F)CC2    OVCAR-5 ovarian         > 100 µM
 8  c1ccc(Oc2ccc(Nc3ncc(-c4ccccc4)o3)cc2)cc1    OVCAR-5 ovarian          > 25 µM
 9    C=CCCCN1CCCC(C)C1=S (stereo not drawn)    OVCAR-5 ovarian         > 100 µM
10                       CC(C)OC/N=C(/N)NC#N    OVCAR-5 ovarian         > 100 µM
11  CC1=NN2C(c3ccc([N+](=O)[O-])cc3)=CSC2=NC(C)(C)C1    OVCAR-5 ovarian         > 100 µM
12    COc1cc(-c2nc3ccccc3o2)cc(CN2CCCCC2)c1O    OVCAR-5 ovarian          20.7 µM
13  N#CC(C#N)=c1c2ccccc2c(=C(C#N)C#N)c2ccccc12    OVCAR-5 ovarian          43.3 µM
14  CCOC(=O)OC1C(Br)C2CCC1(C)C2(C)C (stereo not drawn)    OVCAR-5 ovarian          31.7 µM
15             Cn1c(=O)cc2[nH]c3ccccc3n2c1=O    OVCAR-5 ovarian         > 100 µM
16  CC(=O)NNc1nc(C)c(C(=O)NNC(=O)C(=O)Nc2c([N+](=O)[O-])ccc(C)c2C)s1    OVCAR-5 ovarian         > 100 µM
17  CC1C[C@]2(C[C@@H](C)C(=O)O2)OC2CC3(C)C4CCC5C(C)(C)OC(=O)CC[C@@]56C[C@@]46CC[C@]3(C)C12 (stereo partly drawn)    OVCAR-5 ovarian         > 100 µM
18    CCOC(=O)c1[nH]c2cc(OC)c(OC)cc2c1CN(C)C    OVCAR-5 ovarian         > 100 µM
19  CCOC(=O)CSC1NC(C(=O)OC)CC1OC (stereo not drawn)    OVCAR-5 ovarian         > 100 µM
20  CCOC(=O)CCC(NC(=O)c1ccc(Oc2nc3c(N)cc(C(F)(F)F)cc3nc2-c2ccccc2)cc1)C(=O)OCC (stereo not drawn)    OVCAR-5 ovarian         > 100 µM
21  CCC(=O)N1C/C(=C/c2ccc(Br)cc2)C(=O)/C(=C/c2ccc(Br)cc2)C1    OVCAR-5 ovarian          3.22 µM
22  COc1cc2cc3c4c(cc(OC)c(OC)c4c2cc1OC)CCN3C    OVCAR-5 ovarian            49 µM
23        Fc1ccc(-c2nn3ccccc3c2-c2ccncc2)cc1    OVCAR-5 ovarian          > 25 µM
24  COc1ccc2c(c1)/C(=C\c1c(-c3cc(OC)ccc3OC)nc3sccn13)C(=O)N2    OVCAR-5 ovarian           3.1 µM
25  COc1ccc2c(c1)C(OC)C1c3c(cc4c(c3-2)OCO4)CCN1C (stereo not drawn)    OVCAR-5 ovarian          16.8 µM
26                   CCCc1nc(Cl)c(Cl)c(Cl)n1    OVCAR-5 ovarian          97.9 µM
27            O=C1Cc2cc(CCn3cncn3)c(Cl)cc2N1    OVCAR-5 ovarian         > 100 µM
28  c1ccc(Cn2c(-c3ccc(-c4ccccc4)cc3)cc3ccccc32)cc1    OVCAR-5 ovarian         > 100 µM
29  O=CC1C(Cl)=Nc2nc3ccccc3n2C1c1ccccc1 (stereo not drawn)    OVCAR-5 ovarian          79.6 µM
30                O=C1OCC(c2ccc(Cl)cc2)=C1Cl    OVCAR-5 ovarian          44.4 µM
31  COc1c(C(C)(C)C)cc(CC2C(=O)C=CC2=O)cc1C(C)(C)C    OVCAR-5 ovarian          35.8 µM
32  OCCCCn1cc(Cn2ncc3c(NCc4ccccc4)ncnc32)nn1    OVCAR-5 ovarian         > 100 µM
33  COc1ccc(OC)c(NC(=O)C(=O)CC(=O)c2sc(-n3nc(-c4ccccc4)cc3-c3ccccc3)nc2C)c1    OVCAR-5 ovarian         > 100 µM
34  CC(NC1=CC(=O)c2cccnc2C1=O)C(O)c1ccccc1 (stereo not drawn)    OVCAR-5 ovarian          4.69 µM
35  Cc1cn(Cc2cccc(C3=NCCCN3)c2)c(=O)n(Cc2cccc(C3=NCCCN3)c2)c1=O    OVCAR-5 ovarian         > 100 µM
36  CCN(CC)c1ccc(-c2cc(-c3cc(OC)c(OC)c(OC)c3)nc(N3CCC(O)CC3)c2C#N)cc1    OVCAR-5 ovarian        > 21.8 µM
37      COc1ccc(OC)c(/C=C2\CCc3ccccc3C2=O)c1    OVCAR-5 ovarian          25.5 µM
38  CCc1c(CNC2=NCCN2)c(CC)c(CNC2=NCCN2)c(CC)c1CNC1=NCCN1    OVCAR-5 ovarian         > 100 µM
39                CC(=O)/C(Br)=C/c1ccc(Br)o1    OVCAR-5 ovarian          34.4 µM
40        Clc1cccc(CNc2c3ccccc3nc3ccccc23)c1    OVCAR-5 ovarian          6.54 µM
41  O=C(Nc1ccccc1)OC1OC(COC(=O)c2ccccc2)C(OC(=O)c2ccccc2)C1OS(=O)(=O)c1ccc([N+](=O)[O-])cc1 (stereo not drawn)    OVCAR-5 ovarian         > 100 µM
42  O=C(CCC(=O)Nc1cccc(C(F)(F)F)c1)CC(=O)c1ccc2ccccc2c1    OVCAR-5 ovarian         > 100 µM
43  COC(=O)Cc1c([C@H]2[C@H](CC(=O)OC)c3ccccc3N2S(=O)(=O)c2ccc(C)cc2)[nH]c2ccccc12    OVCAR-5 ovarian         > 100 µM
